Just for reference, paper PMC8991199 is where these values come from.

pKd: −log10 of the molar value.
Hi! I'm sharing some pKd results obtained with S100A2 (Homo sapiens).
Sequence (P29034 whole entry): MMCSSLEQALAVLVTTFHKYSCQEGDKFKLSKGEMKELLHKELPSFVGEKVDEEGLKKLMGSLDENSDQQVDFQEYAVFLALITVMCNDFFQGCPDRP
experimentalEndpoint: pKd

compound	valueRelationSign	observedResult
CC[C@H](C)[C@@H](CC(=O)N[C@H]1CCCC[C@@H]1C(=O)NCC(=O)N[C@@H](CCCCNC(=O)c1ccc2c(c1)C1(OC2=O)c2ccc(O)cc2Oc2cc(O)ccc21)C(N)=O)NC(=O)[C@H]1CCCC[C@@H]1NC(=O)[C@H]1CCCC[C@@H]1NC(=O)C[C@@H](NC(=O)[C@H]1CCCC[C@@H]1N)[C@@H](C)O [fTI]	<	3.00
CC(C)C[C@@H](CC(=O)N[C@H]1CCCC[C@@H]1C(=O)NCC(=O)N[C@@H](CCCCNC(=O)c1ccc2c(c1)C1(OC2=O)c2ccc(O)cc2Oc2cc(O)ccc21)C(N)=O)NC(=O)[C@H]1CCCC[C@@H]1NC(=O)[C@H]1CCCC[C@@H]1NC(=O)C[C@@H](NC(=O)[C@H]1CCCC[C@@H]1N)C(C)C [fVL]	=	3.68
CC(C)C[C@@H](CC(=O)N[C@H]1CCCC[C@@H]1C(=O)NCC(=O)N[C@@H](CCCCNC(=O)c1ccc2c(c1)C1(OC2=O)c2ccc(O)cc2Oc2cc(O)ccc21)C(N)=O)NC(=O)[C@H]1CCCC[C@@H]1NC(=O)[C@H]1CCCC[C@@H]1NC(=O)C[C@H](Cc1c[nH]c2ccccc12)NC(=O)[C@H]1CCCC[C@@H]1N [fWL]	=	4.96
NC(=O)[C@H](CCCCNC(=O)c1ccc2c(c1)C1(OC2=O)c2ccc(O)cc2Oc2cc(O)ccc21)NC(=O)CNC(=O)[C@H]1CCCC[C@@H]1NC(=O)C[C@H](Cc1ccccc1)NC(=O)[C@H]1CCCC[C@@H]1NC(=O)[C@H]1CCCC[C@@H]1NC(=O)C[C@H](Cc1ccc(O)cc1)NC(=O)[C@H]1CCCC[C@@H]1N [fYF]	=	4.59
N=C(N)NCCC[C@@H](CC(=O)N[C@H]1CCCC[C@@H]1C(=O)N[C@H]1CCCC[C@@H]1C(=O)N[C@H](CC(=O)N[C@H]1CCCC[C@@H]1C(=O)NCC(=O)N[C@@H](CCCCNC(=O)c1ccc2c(c1)C1(OC2=O)c2ccc(O)cc2Oc2cc(O)ccc21)C(N)=O)Cc1ccccc1)NC(=O)[C@H]1CCCC[C@@H]1N [fRF]	=	3.47
CC[C@H](C)[C@@H](CC(=O)N[C@H]1CCCC[C@@H]1C(=O)N[C@H]1CCCC[C@@H]1C(=O)N[C@H](CC(=O)N[C@H]1CCCC[C@@H]1C(=O)NCC(=O)N[C@@H](CCCCNC(=O)c1ccc2c(c1)C1(OC2=O)c2ccc(O)cc2Oc2cc(O)ccc21)C(N)=O)CC(C)C)NC(=O)[C@H]1CCCC[C@@H]1N [fIL]	=	4.11
N=C(N)NCCC[C@@H](CC(=O)N[C@H]1CCCC[C@@H]1C(=O)NCC(=O)N[C@@H](CCCCNC(=O)c1ccc2c(c1)C1(OC2=O)c2ccc(O)cc2Oc2cc(O)ccc21)C(N)=O)NC(=O)[C@H]1CCCC[C@@H]1NC(=O)[C@H]1CCCC[C@@H]1NC(=O)C[C@H](CCCNC(=N)N)NC(=O)[C@H]1CCCC[C@@H]1N [fRR]	=	4.21

----------
Hi! I'm sharing some Kd results obtained with S100A16 (Homo sapiens).
Sequence (Q96FQ6 whole entry): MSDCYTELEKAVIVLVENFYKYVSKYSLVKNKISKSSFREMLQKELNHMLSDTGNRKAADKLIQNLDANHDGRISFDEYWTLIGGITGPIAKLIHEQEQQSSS

smilesNotation	testedOn	Kd
C[C@@H](O)[C@@H](CC(=O)N[C@H]1CCCC[C@@H]1C(=O)N[C@H]1CCCC[C@@H]1C(=O)N[C@H](CC(=O)N[C@H]1CCCC[C@@H]1C(=O)NCC(=O)N[C@@H](CCCCNC(=O)c1ccc2c(c1)C1(OC2=O)c2ccc(O)cc2Oc2cc(O)ccc21)C(N)=O)Cc1c[nH]c2ccccc12)NC(=O)[C@H]1CCCC[C@@H]1N	S100A16 (Homo sapiens)	> 1 mM
CC[C@H](C)[C@@H](CC(=O)N[C@H]1CCCC[C@@H]1C(=O)N[C@H]1CCCC[C@@H]1C(=O)N[C@H](CC(=O)N[C@H]1CCCC[C@@H]1C(=O)NCC(=O)N[C@@H](CCCCNC(=O)c1ccc2c(c1)C1(OC2=O)c2ccc(O)cc2Oc2cc(O)ccc21)C(N)=O)CC(C)C)NC(=O)[C@H]1CCCC[C@@H]1N	S100A16 (Homo sapiens)	> 1 mM
NC(=O)[C@H](CCCCNC(=O)c1ccc2c(c1)C1(OC2=O)c2ccc(O)cc2Oc2cc(O)ccc21)NC(=O)CNC(=O)[C@H]1CCCC[C@@H]1NC(=O)C[C@H](Cc1ccccc1)NC(=O)[C@H]1CCCC[C@@H]1NC(=O)[C@H]1CCCC[C@@H]1NC(=O)C[C@H](Cc1ccc(O)cc1)NC(=O)[C@H]1CCCC[C@@H]1N	S100A16 (Homo sapiens)	> 1 mM

----------
- testedOn: S100A11 (Homo sapiens)
- Sequence (P31949 whole entry): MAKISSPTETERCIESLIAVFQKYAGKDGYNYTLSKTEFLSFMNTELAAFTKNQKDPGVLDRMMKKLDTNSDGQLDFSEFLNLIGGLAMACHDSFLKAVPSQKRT
pKd: −log10 of the molar value.
Attribute: pKd

molecule	pKd
CC(C)C[C@@H](CC(=O)N[C@H]1CCCC[C@@H]1C(=O)NCC(=O)N[C@@H](CCCCNC(=O)c1ccc2c(c1)C1(OC2=O)c2ccc(O)cc2Oc2cc(O)ccc21)C(N)=O)NC(=O)[C@H]1CCCC[C@@H]1NC(=O)[C@H]1CCCC[C@@H]1NC(=O)C[C@@H](NC(=O)[C@H]1CCCC[C@@H]1N)C(C)C [fVL]	< 3.00
CC[C@H](C)[C@@H](CC(=O)N[C@H]1CCCC[C@@H]1C(=O)NCC(=O)N[C@@H](CCCCNC(=O)c1ccc2c(c1)C1(OC2=O)c2ccc(O)cc2Oc2cc(O)ccc21)C(N)=O)NC(=O)[C@H]1CCCC[C@@H]1NC(=O)[C@H]1CCCC[C@@H]1NC(=O)C[C@@H](NC(=O)[C@H]1CCCC[C@@H]1N)[C@@H](C)O [fTI]	< 3.00
N=C(N)NCCC[C@@H](CC(=O)N[C@H]1CCCC[C@@H]1C(=O)NCC(=O)N[C@@H](CCCCNC(=O)c1ccc2c(c1)C1(OC2=O)c2ccc(O)cc2Oc2cc(O)ccc21)C(N)=O)NC(=O)[C@H]1CCCC[C@@H]1NC(=O)[C@H]1CCCC[C@@H]1NC(=O)C[C@H](CCCNC(=N)N)NC(=O)[C@H]1CCCC[C@@H]1N [fRR]	< 3.00
NC(=O)[C@H](CCCCNC(=O)c1ccc2c(c1)C1(OC2=O)c2ccc(O)cc2Oc2cc(O)ccc21)NC(=O)CNC(=O)[C@H]1CCCC[C@@H]1NC(=O)C[C@H](Cc1ccccc1)NC(=O)[C@H]1CCCC[C@@H]1NC(=O)[C@H]1CCCC[C@@H]1NC(=O)C[C@H](Cc1ccc(O)cc1)NC(=O)[C@H]1CCCC[C@@H]1N [fYF]	< 3.00
NC(=O)[C@H](CCCCNC(=O)c1ccc2c(c1)C1(OC2=O)c2ccc(O)cc2Oc2cc(O)ccc21)NC(=O)CNC(=O)[C@H]1CCCC[C@@H]1NC(=O)C[C@H](Cc1c[nH]c2ccccc12)NC(=O)[C@H]1CCCC[C@@H]1NC(=O)[C@H]1CCCC[C@@H]1NC(=O)C[C@H](Cc1c[nH]c2ccccc12)NC(=O)[C@H]1CCCC[C@@H]1N [fWW]	< 3.00
CC[C@H](C)[C@@H](CC(=O)N[C@H]1CCCC[C@@H]1C(=O)N[C@H]1CCCC[C@@H]1C(=O)N[C@H](CC(=O)N[C@H]1CCCC[C@@H]1C(=O)NCC(=O)N[C@@H](CCCCNC(=O)c1ccc2c(c1)C1(OC2=O)c2ccc(O)cc2Oc2cc(O)ccc21)C(N)=O)Cc1ccccc1)NC(=O)[C@H]1CCCC[C@@H]1N [fIF]	3.55
CC[C@H](C)[C@@H](CC(=O)N[C@H]1CCCC[C@@H]1C(=O)N[C@H]1CCCC[C@@H]1C(=O)N[C@H](CC(=O)N[C@H]1CCCC[C@@H]1C(=O)NCC(=O)N[C@@H](CCCCNC(=O)c1ccc2c(c1)C1(OC2=O)c2ccc(O)cc2Oc2cc(O)ccc21)C(N)=O)CC(C)C)NC(=O)[C@H]1CCCC[C@@H]1N [fIL]	< 3.00
C[C@@H](O)[C@@H](CC(=O)N[C@H]1CCCC[C@@H]1C(=O)N[C@H]1CCCC[C@@H]1C(=O)N[C@H](CC(=O)N[C@H]1CCCC[C@@H]1C(=O)NCC(=O)N[C@@H](CCCCNC(=O)c1ccc2c(c1)C1(OC2=O)c2ccc(O)cc2Oc2cc(O)ccc21)C(N)=O)Cc1c[nH]c2ccccc12)NC(=O)[C@H]1CCCC[C@@H]1N [fTW]	3.24

----------
Hi! I'm sharing some Kd results obtained with S100A5 (Homo sapiens, UniProt P33763).
Sequence (P33763 whole entry): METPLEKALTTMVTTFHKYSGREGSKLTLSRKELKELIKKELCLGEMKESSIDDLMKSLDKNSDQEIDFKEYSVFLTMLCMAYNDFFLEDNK

smilesNotation	unitDescriptor	Kd
CC[C@H](C)[C@@H](CC(=O)N[C@H]1CCCC[C@@H]1C(=O)N[C@H]1CCCC[C@@H]1C(=O)N[C@H](CC(=O)N[C@H]1CCCC[C@@H]1C(=O)NCC(=O)N[C@@H](CCCCNC(=O)c1ccc2c(c1)C1(OC2=O)c2ccc(O)cc2Oc2cc(O)ccc21)C(N)=O)CC(C)C)NC(=O)[C@H]1CCCC[C@@H]1N	µM	75
NC(=O)[C@H](CCCCNC(=O)c1ccc2c(c1)C1(OC2=O)c2ccc(O)cc2Oc2cc(O)ccc21)NC(=O)CNC(=O)[C@H]1CCCC[C@@H]1NC(=O)C[C@H](Cc1ccccc1)NC(=O)[C@H]1CCCC[C@@H]1NC(=O)[C@H]1CCCC[C@@H]1NC(=O)C[C@H](Cc1ccc(O)cc1)NC(=O)[C@H]1CCCC[C@@H]1N	µM	32
